Reported percentage damage caused to the plant, LOLPE (five-point scale) values are given for each entry in this list.
# Tested on: Lolium perenne (LOLPE)
# EXPERIMENT SUMMARY: Pre-emergence herbicidal test
# Format: in vivo
# ASSAY CONTEXT: 1000 g/ha unless otherwise stated

Use these answered entries as a reference point.
[[record]]
molecule = "CCn1c(C)c(C(C)=O)c(=O)c(C(=O)O)c1-c1ccc(Cl)c(Cl)c1 [Compound 2.008]"
assay_value = "4 (4=61-80%)"

[[record]]
molecule = "C=Cc1c(C)n(CC)c(-c2ccc(Cl)c(Cl)c2)c(C(=O)O)c1=O [Compound 2.001]"
assay_value = "4 (4=61-80%)"

[[record]]
molecule = "C#Cc1c(C)n(CC)c(-c2ccc(Cl)c(Cl)c2)c(C(=O)O)c1=O [Compound 2.005]"
assay_value = "1 (1=0-20%)"

[[record]]
molecule = "CCn1c(C)c(C(=O)O)c(=O)c(C(=O)O)c1-c1ccc(Cl)c(Cl)c1 [Compound 2.010]"
assay_value = "2 (2=21-40%)"


Let us move to another entry and its percentage damage caused to the plant, LOLPE (five-point scale).
What value of measured percentage damage caused to the plant, LOLPE (five-point scale) is listed for C=Cc1c(C)n(CC)c(-c2ccc(Cl)c(Cl)c2)c(C(=O)OC)c1=O [Compound 4.001] ? 1 (1=0-20%)

* * *

percentage damage caused to the plant, ECHCG (five-point scale) overview
# Tested on: Echinochloa crus-galli (ECHCG)
# EXPERIMENT SUMMARY: Pre-emergence herbicidal test
# Format: in vivo
# ASSAY CONTEXT: 1000 g/ha unless otherwise stated

Example entries and their recorded answers appear below.
[[record]]
molecule = "C=Cc1c(C)n(CC)c(-c2ccc(Cl)c(Cl)c2)c(C(=O)O)c1=O [Compound 2.001]"
assay_value = "3 (3=41-60%)"

[[record]]
molecule = "CCn1c(C)c(C(C)=O)c(=O)c(C(=O)O)c1-c1ccc(Cl)c(Cl)c1 [Compound 2.008]"
assay_value = "3 (3=41-60%)"

[[record]]
molecule = "CCn1c(C)c(C(=O)O)c(=O)c(C(=O)O)c1-c1ccc(Cl)c(Cl)c1 [Compound 2.010]"
assay_value = "1 (1=0-20%)"

[[record]]
molecule = "C#Cc1c(C)n(CC)c(-c2ccc(Cl)c(Cl)c2)c(C(=O)O)c1=O [Compound 2.005]"
assay_value = "1 (1=0-20%)"


# next molecule below
If you can, please state the reported percentage damage caused to the plant, ECHCG (five-point scale) value of C=Cc1c(C)n(CC)c(-c2ccc(Cl)c(Cl)c2)c(C(=O)OC)c1=O [Compound 4.001] . 1 (1=0-20%)

* * *

# Test system: Setaria faberi (SETFA)
# EXPERIMENT SUMMARY: Post-emergence herbicidal test
# Type: in vivo
# ASSAY CONTEXT: 1000 g/ha unless otherwise stated, evaluated after 13 days
METRIC NAME: percentage damage caused to the plant, SETFA (five-point scale)

Take a look at these entries with their results.
[[record]]
molecule_smiles = "CCn1c(C)c(C(C)=O)c(=O)c(C(=O)O)c1-c1ccc(Cl)c(Cl)c1"
assay_value = "3 (3=41-60%)"

[[record]]
molecule_smiles = "C=Cc1c(C)n(CC)c(-c2ccc(Cl)c(Cl)c2)c(C(=O)O)c1=O"
assay_value = "4 (4=61-80%)"

[[record]]
molecule_smiles = "C#Cc1c(C)n(CC)c(-c2ccc(Cl)c(Cl)c2)c(C(=O)O)c1=O"
assay_value = "5 (5=81-100%)"

[[record]]
molecule_smiles = "C=Cc1c(C)n(CC)c(-c2ccc(Cl)c(Cl)c2)c(C(=O)OC)c1=O"
assay_value = "4 (4=61-80%)"


Item CCn1c(C)c(C(=O)O)c(=O)c(C(=O)O)c1-c1ccc(Cl)c(Cl)c1 has what recorded percentage damage caused to the plant, SETFA (five-point scale)? 1 (1=0-20%)

* * *

# Tested on: Solanum nigrum (SOLNI)
# EXPERIMENT SUMMARY: Post-emergence herbicidal test
# Type: in vivo
# ASSAY CONTEXT: 1000 g/ha unless otherwise stated, evaluated after 13 days
# Protocol: Seeds of a variety of test species are sown in standard soil in pots (Amaranthus retoflexus (AMARE), Solanum nigrum (SOLNI), Setaria faberi (SETFA), Lolium perenne (LOLPE), Echinochloa crus-galli (ECHCG), Ipomoea hederacea (IPOHE)). […] After 13 days the test is evaluated for the percentage damage caused to the plant. […]
Listing of entries alongside the reported percentage damage caused to the plant, SOLNI (five-point scale).

[[record]]
molecule = "C=Cc1c(C)n(CC)c(-c2ccc(Cl)c(Cl)c2)c(C(=O)O)c1=O [Compound 2.001]"
assay_value = "1 (1=0-20%)"


Requested read-out: percentage damage caused to the plant, SOLNI (five-point scale). Entry: CCn1c(C)c(C(C)=O)c(=O)c(C(=O)O)c1-c1ccc(Cl)c(Cl)c1 [Compound 2.008] 2 (2=21-40%)

Record request: percentage damage caused to the plant, SOLNI (five-point scale) value, item CCn1c(C)c(C(=O)O)c(=O)c(C(=O)O)c1-c1ccc(Cl)c(Cl)c1 [Compound 2.010] 2 (2=21-40%)

Given C#Cc1c(C)n(CC)c(-c2ccc(Cl)c(Cl)c2)c(C(=O)O)c1=O [Compound 2.005] , state its recorded percentage damage caused to the plant, SOLNI (five-point scale). 4 (4=61-80%)

// lookup percentage damage caused to the plant, SOLNI (five-point scale) for C=Cc1c(C)n(CC)c(-c2ccc(Cl)c(Cl)c2)c(C(=O)OC)c1=O [Compound 4.001] 1 (1=0-20%)

* * *

# Test system: Setaria faberi (SETFA)
# EXPERIMENT SUMMARY: Pre-emergence herbicidal test
# Type: in vivo
# ASSAY CONTEXT: 1000 g/ha unless otherwise stated
METRIC NAME: percentage damage caused to the plant, SETFA (five-point scale)

Sample answers from the record:
[[record]]
molecule_smiles = "C=Cc1c(C)n(CC)c(-c2ccc(Cl)c(Cl)c2)c(C(=O)O)c1=O"
assay_value = "4 (4=61-80%)"

[[record]]
molecule_smiles = "CCn1c(C)c(C(C)=O)c(=O)c(C(=O)O)c1-c1ccc(Cl)c(Cl)c1"
assay_value = "5 (5=81-100%)"

[[record]]
molecule_smiles = "CCn1c(C)c(C(=O)O)c(=O)c(C(=O)O)c1-c1ccc(Cl)c(Cl)c1"
assay_value = "1 (1=0-20%)"

[[record]]
molecule_smiles = "C#Cc1c(C)n(CC)c(-c2ccc(Cl)c(Cl)c2)c(C(=O)O)c1=O"
assay_value = "4 (4=61-80%)"


We next turn to a different compound, shown below.
Name the recorded percentage damage caused to the plant, SETFA (five-point scale) for C=Cc1c(C)n(CC)c(-c2ccc(Cl)c(Cl)c2)c(C(=O)OC)c1=O . 1 (1=0-20%)

Reference for the values: patent US20240002342A1
